protein stability index values for the variants below.
B1: TSN (parent)
chain: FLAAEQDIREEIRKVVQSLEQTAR

Variants of: B1
Experiment: protein stability index of a GFP-peptide fusion (GPS, HEK-293T) (PSI 1-6); higher = more stable;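 further: lentivirally expressed fusions sorted by FACS into six bins by GFP to DsRed ratio, PSI derived from sequencing read proportions per bin multiplied by bin number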
Settings: c terminus: a fixed tail appended
OBSERVATION TYPE: protein stability index

>  <SEQUENCE CHANGE>
E20G

>  <NUMERIC VALUE>
2.28

$$$$
>  <SEQUENCE CHANGE>
A3K

>  <NUMERIC VALUE>
2.13

$$$$
>  <SEQUENCE CHANGE>
R9P

>  <NUMERIC VALUE>
3.1

$$$$
